Data credit: paper PMC3701070

- System: SK-LMS-1
- assay: Cell growth assay
- Format: cell-based
- assay.conditions: Homo sapiens, 72 h; SK-LMS-1, RAF WT, RAS WT, 3-day; read-out: gIC50
readout.name: IC50

So what does the record say about IC50 for `CC(C)(C)c1nc(-c2cccc(NS(=O)(=O)c3c(F)cccc3F)c2F)c(-c2ccnc(N)n2)s1` ?
> 10 µM

* * *

- Tested on: MiaPaCa
- assay: Cell growth assay
- Type: cell-based
- assay.conditions: Homo sapiens, MIA PaCa-2, 72 h, RAF WT, RAS WT, 3-day, read-out: gIC50
pIC50: −log10 of the molar value.
readout.name: pIC50

// query pIC50 value for entry `CC(C)(C)c1nc(-c2cccc(NS(=O)(=O)c3c(F)cccc3F)c2F)c(-c2ccnc(N)n2)s1`
< 5.00
